Provide the reported activity at 2.5 µM of each item.
# experimental.target: dengue 2 protease (Dengue virus type 2, UniProt P14340)
# Construct: The active site of the dengue protease is in the N-terminal part of NS3
# Sequence (P14340 1476-1653): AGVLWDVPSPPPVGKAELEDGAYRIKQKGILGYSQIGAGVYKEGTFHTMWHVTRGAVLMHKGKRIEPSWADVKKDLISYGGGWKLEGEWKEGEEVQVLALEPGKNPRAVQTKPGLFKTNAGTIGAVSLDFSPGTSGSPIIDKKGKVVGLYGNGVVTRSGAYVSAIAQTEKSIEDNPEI
# protocol.text: Dengue 2 protease inhibition, hydrolysis of Z-RR-MCA
# Assay type: biochemical, dengue 2 virus
# assay.setup: 2.5 μM inhibitor, 36.5° C.
Residues, ends and D or L forms follow the SMILES beside them.
// return numeric value only (unit: %, not printed)

// field: activity at 2.5 µM; key: CCCCCCCCCCCCCCCCNC(=O)[C@H](CCCCN)NC(=O)[C@H](C)NC(=O)[C@H](C)NC(=O)[C@H](C)NC(=O)[C@H](C)NC(=O)[C@H](CCCCN)NC(=O)CCCCCCCCCCCCCCC [C16-KAAAAK-C16] (HELM PEPTIDE1{[CCCCCCCCCCCCCCCC(=O)[*:2]].K.A.A.A.A.K.[CCCCCCCCCCCCCCCCN[*:1]]}$$$$V2.0) ; value = 94

// field: activity at 2.5 µM; key: CCCCCCCCCCCCCCCCNC(=O)[C@H](CCCCN)NC(=O)[C@H](C)NC(=O)[C@H](CCCCN)NC(=O)CCCCCCCCCCCCCCC ; value = 87

// field: activity at 2.5 µM; key: CCCCCCCCCCCCCCCCNC(=O)[C@H](CCCCN)NC(=O)[C@H](C)NC(=O)[C@H](C)NC(=O)[C@H](C)NC(=O)[C@H](CCCCN)NC(=O)CCCCCCCCCCCCCCC [C16-KAAAK-C16] (HELM PEPTIDE1{[CCCCCCCCCCCCCCCC(=O)[*:2]].K.A.A.A.K.[CCCCCCCCCCCCCCCCN[*:1]]}$$$$V2.0) ; value = 91

* * *

# experimental.target: dengue 2 protease (Dengue virus type 2, UniProt P14340)
# Construct: The active site of the dengue protease is in the N-terminal part of NS3
# protocol.text: Dengue 2 protease inhibition, hydrolysis of Z-RR-MCA
# Assay type: biochemical, dengue 2 virus
# Parameters: unit not given here
# assay.setup: 30 μM of inhibitor; 10 μM Z-RR-MCA, pH 9.0, 37° C.; initial activity in UAF/min
Residues, ends and D or L forms follow the SMILES beside them.
reported.metric: Activity with inhibitors
Number only, no unit.

// field: Activity with inhibitors; key: CCCCCCCCCCCCCCCCNC(=O)[C@H](CCCCN)NC(=O)CNC(=O)CNC(=O)CNC(=O)[C@H](CCCCN)NC(=O)CCCCCCCCCCCCCCC [C16-KGGGK-C16, C15H31CO-KGGGK-NH—C16H33] (HELM PEPTIDE1{[CCCCCCCCCCCCCCCC(=O)[*:2]].K.G.G.G.K.[CCCCCCCCCCCCCCCCN[*:1]]}$$$$V2.0) ; value = 40

// field: Activity with inhibitors; key: CCCCCCCCCCCCNC(=O)[C@H](CCCCN)NC(=O)[C@H](CCCCN)NC(=O)CCCCCCCCCCC [C12KKC12, n-C11H23C(O)-Lys-Lys-(n-C12H25).2TFA] ; value = 0

// field: Activity with inhibitors; key: CCCCCCCCCCCCCCCCNC(=O)[C@H](CCCCN)NC(=O)CNC(=O)CNC(=O)CNC(=O)CNC(=O)[C@H](CCCCN)NC(=O)CCCCCCCCCCCCCCC [C16KG4KC16] (HELM PEPTIDE1{[CCCCCCCCCCCCCCCC(=O)[*:2]].K.G.G.G.G.K.[CCCCCCCCCCCCCCCCN[*:1]]}$$$$V2.0) ; value = 0

// field: Activity with inhibitors; key: CCCCCCCCCCCCCCCCNC(=O)[C@H](CCCCN)NC(=O)[C@H](C)NC(=O)[C@H](CCCCN)NC(=O)CCCCCCCCCCCCCCC [C16-KAK-C16] ; value = 0
